biological target: recombinant human Mcl-1 (residues 171-327) / Bim interaction (Homo sapiens (Human)); assay: biochemical; assay type: binding; settings: TR-FRET, Mcl-1(171-327) / biotin-Bim (51-76); read-out: Mcl-1 HTRF IC50
Sequence (Q07820 171-327): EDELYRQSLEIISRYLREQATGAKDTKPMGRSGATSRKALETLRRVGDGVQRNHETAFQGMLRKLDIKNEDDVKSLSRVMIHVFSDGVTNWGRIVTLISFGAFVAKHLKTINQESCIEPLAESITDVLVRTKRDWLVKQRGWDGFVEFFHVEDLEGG
pIC50: −log10 of the molar value.
Classify as follows. Reported pIC50 greater than or equal to 9: condition met. Reported pIC50 below: condition not met.

Answered cases to consult:
compound	group
COC(=O)C[C@@]1(O)/C=C/C[C@H](C)[C@@H](C)S(=O)(=O)NC(=O)c2ccc3c(c2)N(C[C@@H]2CC[C@H]21)C[C@@]1(CCCc2cc(Cl)ccc21)CO3 [Example 100287]	condition met
COC(=O)c1nc(C[C@]2(OC)/C=C/C[C@H](C)[C@@H](C)S(=O)(=O)NC(=O)c3ccc4c(c3)N(C[C@@H]3CC[C@H]32)C[C@@]2(CCCc3cc(Cl)ccc32)CO4)oc1C [Example 100583]	condition met
CO[C@@]1(CC(=O)NCCCl)/C=C/C[C@H](C)[C@@H](C)S(=O)(=O)NC(=O)c2ccc3c(c2)N(C[C@@H]2CC[C@H]21)C[C@@]1(CCCc2cc(Cl)ccc21)CO3 [Example 100509]	condition met

Prompt: Given the entry C[C@@H]1[C@@H](C)C/C=C/[C@@](C)(OCc2cc(F)cc(F)c2)[C@@H]2CC[C@H]2CN2C[C@@]3(CCCc4cc(Cl)ccc43)COc3ccc(cc32)C(=O)NS1(=O)=O (single isomer, unassigned) [Example 100474] , answer whether its pIC50 meets or surpasses 9.
Completion: condition met

Prompt: Given the entry CO[C@@]1(c2cccnc2)/C=C/C[C@H](C)[C@@H](C)S(=O)(=O)NC(=O)c2ccc3c(c2)N(C[C@@H]2CC[C@H]21)C[C@@]1(CCCc2cc(Cl)ccc21)CO3 [Example 100391] , answer whether its pIC50 meets or surpasses 9.
Completion: condition met

Prompt: Given the entry CO[C@@]1(C)/C=C/C[C@H](C)[C@@H](CCO)S(=O)(=O)NC(=O)c2ccc3c(c2)N(C[C@@H]2CC[C@H]21)C[C@@]1(CCCc2cc(Cl)ccc21)CO3 (single isomer, unassigned) [Example 100593] , answer whether its pIC50 meets or surpasses 9.
Completion: condition met

Prompt: Given the entry C[C@@H]1[C@@H](C)CCC[C@@](O)([C@@H]2CCN(C)C2=O)[C@@H]2CC[C@H]2CN2C[C@@]3(CCCc4cc(Cl)ccc43)COc3ccc(cc32)C(=O)NS1(=O)=O [Example 100203] , answer whether its pIC50 meets or surpasses 9.
Completion: condition met

Prompt: Given the entry CO[C@@]1(C(C)(C)O)/C=C/C[C@H](C)[C@@H](C)S(=O)(=O)NC(=O)c2ccc3c(c2)N(C[C@@H]2CC[C@H]21)C[C@@]1(CCCc2cc(Cl)ccc21)CO3 [Example 100404] , answer whether its pIC50 meets or surpasses 9.
Completion: condition not met

Prompt: Given the entry C=CCC[C@@]1(O)/C=C/C[C@H](C)[C@@H](C)S(=O)(=O)NC(=O)c2ccc3c(c2)N(C[C@@H]2CC[C@H]21)C[C@@]1(CCCc2cc(Cl)ccc21)CO3 [Example 100157] , answer whether its pIC50 meets or surpasses 9.
Completion: condition not met

Prompt: Given the entry CC[C@]1(OC)/C=C/C[C@H](C)[C@@H](C)S(=O)(=O)NC(=O)c2ccc3c(c2)N(C[C@@H]2CC[C@H]21)C[C@@]1(CCCc2cc(Cl)ccc21)CO3 [Example 100234] , answer whether its pIC50 meets or surpasses 9.
Completion: condition met

Prompt: Given the entry CO[C@@]1(C2SCCCS2)CCC[C@H](C)[C@@H](C)S(=O)(=O)NC(=O)c2ccc3c(c2)N(C[C@@H]2CC[C@H]21)C[C@@]1(CCCc2cc(Cl)ccc21)CO3 [Example 100249] , answer whether its pIC50 meets or surpasses 9.
Completion: condition not met

Prompt: Given the entry C[C@@H]1[C@@H](C)C/C=C/[C@](O)(c2cccnc2F)[C@@H]2CC[C@H]2CN2C[C@@]3(CCCc4cc(Cl)ccc43)COc3ccc(cc32)C(=O)NS1(=O)=O (single isomer, unassigned) [Example 100314] , answer whether its pIC50 meets or surpasses 9.
Completion: condition not met

Prompt: Given the entry CO[C@@]1(CC(=O)N2CCN(C)C[C@H]2C)/C=C/C[C@H](C)[C@@H](C)S(=O)(=O)NC(=O)c2ccc3c(c2)N(C[C@@H]2CC[C@H]21)C[C@@]1(CCCc2cc(Cl)ccc21)CO3 [Example 100417] , answer whether its pIC50 meets or surpasses 9.
Completion: condition met

Cited source for all entries: patent US10821115B2
